- Assay type: in vitro ADME
- CONDITION CONTEXT: human liver microsomes; also: time not given here
METRIC NAME: Metabolic Stability H (% Rem.)

Notebook: Nc1nc2ccc(-c3cccc(C(=O)O)c3)cc2c(=O)n1-c1ccc(C(F)(F)F)cc1 [compound 20] , Metabolic Stability H (% Rem.) read as 99 % Rem.

Notebook: Cc1ccc(-n2c(N)nc3ccc(-c4cccc([S+](C)[O-])c4)cc3c2=O)cc1 (stereo not shown) [compound 36] , Metabolic Stability H (% Rem.) read as 99 % Rem.

Notebook: CNC(=O)c1cncc(-c2ccc3nc(N)n(-c4ccc(C(F)(F)F)cc4)c(=O)c3c2)c1 [compound 12] , Metabolic Stability H (% Rem.) read as 85 % Rem.

Notebook: CS(=O)(=O)c1cccc(-c2ccc3c(=O)n(-c4ccc(C(F)(F)F)cc4)c(N)nc3c2)c1 [compound 30] , Metabolic Stability H (% Rem.) read as 99/99/99 % Rem.
